B1: PDLIM4 (parent)
chain: FLDERLYCESHAKARVKPPEGYDV

# Variants of: B1
# assay.text: protein stability index of a GFP-peptide fusion (GPS, HEK-293T) (PSI 1-6); higher = more stable;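 also: lentivirally expressed fusions sorted by FACS into six bins by GFP to DsRed ratio, PSI derived from sequencing read proportions per bin multiplied by bin number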
# experimental.parameters: c terminus: a fixed tail appended
Measured protein stability index, listed per entry.
experimental.endpoint: protein stability index

[[record]]
residue_codes = "CLDERLYCESHAKARVKPPEGYDV [F1C]"
experimental_value = 3.43

[[record]]
residue_codes = "FLDERLYCEYHAKARVKPPEGYDV [S10Y]"
experimental_value = 2.75

[[record]]
residue_codes = "FLDERLYYESHAKARVKPPEGYDV [C8Y]"
experimental_value = 2.17

[[record]]
residue_codes = "FLDERLYCESHAKACVKPPEGYDV [R15C]"
experimental_value = 1.97

[[record]]
residue_codes = "FLDERLYDESHAKARVKPPEGYDV [C8D]"
experimental_value = 3.78

[[record]]
residue_codes = "FLDERLYCFSHAKARVKPPEGYDV [E9F]"
experimental_value = 1.49

[[record]]
residue_codes = "ELDERLYCESHAKARVKPPEGYDV [F1E]"
experimental_value = 4.68

[[record]]
residue_codes = "FLDERLYNESHAKARVKPPEGYDV [C8N]"
experimental_value = 2.59

[[record]]
residue_codes = "FLDERLYCESHAKARVKPPEWYDV [G21W]"
experimental_value = 1.49

[[record]]
residue_codes = "FLDERLYCESHAKARVKPPEGYQV [D23Q]"
experimental_value = 2.23

[[record]]
residue_codes = "FLDERLMCESHAKARVKPPEGYDV [Y7M]"
experimental_value = 3.6

[[record]]
residue_codes = "FDDERLYCESHAKARVKPPEGYDV [L2D]"
experimental_value = 4.28

[[record]]
residue_codes = "FLDEFLYCESHAKARVKPPEGYDV [R5F]"
experimental_value = 1.52

[[record]]
residue_codes = "FLDERLYCESHAKFRVKPPEGYDV [A14F]"
experimental_value = 1.65

[[record]]
residue_codes = "FLDERLYCESHAKAKVKPPEGYDV [R15K]"
experimental_value = 2.18

[[record]]
residue_codes = "FLDERLYCESKAKARVKPPEGYDV [H11K]"
experimental_value = 1.64

[[record]]
residue_codes = "FLDERLYCESHAKARVKPCEGYDV [P19C]"
experimental_value = 2.26

[[record]]
residue_codes = "FLDERLYCESHAKARVKPPEGYDH [V24H]"
experimental_value = 1.63

[[record]]
residue_codes = "FLDERLYCESHAKARVKPPEIYDV [G21I]"
experimental_value = 2.25

[[record]]
residue_codes = "MLDERLYCESHAKARVKPPEGYDV [F1M]"
experimental_value = 4.29

[[record]]
residue_codes = "FLDERLYCESHAKARVKPPEGYYV [D23Y]"
experimental_value = 2.45

[[record]]
residue_codes = "FLLERLYCESHAKARVKPPEGYDV [D3L]"
experimental_value = 2.27

[[record]]
residue_codes = "FLDERLYCESHAKARVKPLEGYDV [P19L]"
experimental_value = 2.26

[[record]]
residue_codes = "FLDERLYCESHAKERVKPPEGYDV [A14E]"
experimental_value = 1.31

[[record]]
residue_codes = "FLDERLYCESHHKARVKPPEGYDV [A12H]"
experimental_value = 1.77

[[record]]
residue_codes = "FLDERLYSESHAKARVKPPEGYDV [C8S]"
experimental_value = 2.39

[[record]]
residue_codes = "FLDERLYCEAHAKARVKPPEGYDV [S10A]"
experimental_value = 1.44

[[record]]
residue_codes = "FLTERLYCESHAKARVKPPEGYDV [D3T]"
experimental_value = 1.31

[[record]]
residue_codes = "FLDERLYCESHAKARVKPPVGYDV [E20V]"
experimental_value = 3

[[record]]
residue_codes = "FLDERLYCESHAKARVKPPSGYDV [E20S]"
experimental_value = 1.4

[[record]]
residue_codes = "FLDERLYCESHFKARVKPPEGYDV [A12F]"
experimental_value = 3.29

[[record]]
residue_codes = "FWDERLYCESHAKARVKPPEGYDV [L2W]"
experimental_value = 2.47

[[record]]
residue_codes = "FLDERLYCESHAKYRVKPPEGYDV [A14Y]"
experimental_value = 2.23

[[record]]
residue_codes = "FLDERLYHESHAKARVKPPEGYDV [C8H]"
experimental_value = 2.71

[[record]]
residue_codes = "FLDERLYCESHAKARAKPPEGYDV [V16A]"
experimental_value = 1.75

[[record]]
residue_codes = "FLDERLYCESHAKARVKPPYGYDV [E20Y]"
experimental_value = 2.28

[[record]]
residue_codes = "FLDERLKCESHAKARVKPPEGYDV [Y7K]"
experimental_value = 4.06

[[record]]
residue_codes = "FLDERLYCESHAKARVMPPEGYDV [K17M]"
experimental_value = 2.53

[[record]]
residue_codes = "FLDEPLYCESHAKARVKPPEGYDV [R5P]"
experimental_value = 2.98

[[record]]
residue_codes = "FLDERLYCESHNKARVKPPEGYDV [A12N]"
experimental_value = 1.42

[[record]]
residue_codes = "FLDERLYCESHAKARVKPPEGDDV [Y22D]"
experimental_value = 1.53

[[record]]
residue_codes = "FLDERLQCESHAKARVKPPEGYDV [Y7Q]"
experimental_value = 4.26

[[record]]
residue_codes = "FLDERLYCESHAKARVKPPEDYDV [G21D]"
experimental_value = 2.94

[[record]]
residue_codes = "ILDERLYCESHAKARVKPPEGYDV [F1I]"
experimental_value = 4.27

[[record]]
residue_codes = "FLDERLYCESHAKARVKPPEVYDV [G21V]"
experimental_value = 2.34

[[record]]
residue_codes = "FLDERLYCESHAKARVKPPDGYDV [E20D]"
experimental_value = 1.74

[[record]]
residue_codes = "FLSERLYCESHAKARVKPPEGYDV [D3S]"
experimental_value = 1.03

[[record]]
residue_codes = "FNDERLYCESHAKARVKPPEGYDV [L2N]"
experimental_value = 3.48

[[record]]
residue_codes = "FLDERLYCESHAKAHVKPPEGYDV [R15H]"
experimental_value = 3.03

[[record]]
residue_codes = "DLDERLYCESHAKARVKPPEGYDV [F1D]"
experimental_value = 4.34

[[record]]
residue_codes = "FLDENLYCESHAKARVKPPEGYDV [R5N]"
experimental_value = 1.49

[[record]]
residue_codes = "FLDERLYAESHAKARVKPPEGYDV [C8A]"
experimental_value = 1.53

[[record]]
residue_codes = "FLDERLRCESHAKARVKPPEGYDV [Y7R]"
experimental_value = 3.99

[[record]]
residue_codes = "FLDERLYCESHAKARVDPPEGYDV [K17D]"
experimental_value = 1.27

[[record]]
residue_codes = "FLDERLYCESHACARVKPPEGYDV [K13C]"
experimental_value = 1.21

[[record]]
residue_codes = "FLDERLTCESHAKARVKPPEGYDV [Y7T]"
experimental_value = 5.4

[[record]]
residue_codes = "FLDERLYCESHAKSRVKPPEGYDV [A14S]"
experimental_value = 2.01

[[record]]
residue_codes = "FLDERQYCESHAKARVKPPEGYDV [L6Q]"
experimental_value = 2.5

[[record]]
residue_codes = "FLDERLYCESHAKARVSPPEGYDV [K17S]"
experimental_value = 1.48

[[record]]
residue_codes = "FLDERLYCESHAKRRVKPPEGYDV [A14R]"
experimental_value = 2.57

[[record]]
residue_codes = "FLDERLYCESHAKARVAPPEGYDV [K17A]"
experimental_value = 1.91

[[record]]
residue_codes = "FLDERIYCESHAKARVKPPEGYDV [L6I]"
experimental_value = 1.97

[[record]]
residue_codes = "FLDERLYCESHAKARGKPPEGYDV [V16G]"
experimental_value = 1.57

[[record]]
residue_codes = "FLDERLYCQSHAKARVKPPEGYDV [E9Q]"
experimental_value = 1.44

[[record]]
residue_codes = "FLDERLYCESHAKARVKRPEGYDV [P18R]"
experimental_value = 2.41

[[record]]
residue_codes = "FLDERLYCESSAKARVKPPEGYDV [H11S]"
experimental_value = 1.98

[[record]]
residue_codes = "FLDERLYCESHAKARVKPPEGYDR [V24R]"
experimental_value = 1.99

[[record]]
residue_codes = "FLDERLYCESHAKARVKPPEGYPV [D23P]"
experimental_value = 2.3

[[record]]
residue_codes = "FLDERLYCESHAKAEVKPPEGYDV [R15E]"
experimental_value = 1.34

[[record]]
residue_codes = "FLDERLYIESHAKARVKPPEGYDV [C8I]"
experimental_value = 1.41

[[record]]
residue_codes = "FLDERLYCEIHAKARVKPPEGYDV [S10I]"
experimental_value = 2.17

[[record]]
residue_codes = "FHDERLYCESHAKARVKPPEGYDV [L2H]"
experimental_value = 2.24

[[record]]
residue_codes = "FLDERLYCESHAKARVKPYEGYDV [P19Y]"
experimental_value = 1.43

[[record]]
residue_codes = "FLDERLYCESHAKDRVKPPEGYDV [A14D]"
experimental_value = 1.36

[[record]]
residue_codes = "FLDERLYCVSHAKARVKPPEGYDV [E9V]"
experimental_value = 1.83

[[record]]
residue_codes = "FLAERLYCESHAKARVKPPEGYDV [D3A]"
experimental_value = 2.14

[[record]]
residue_codes = "FLDERLYCESHLKARVKPPEGYDV [A12L]"
experimental_value = 1.28

[[record]]
residue_codes = "YLDERLYCESHAKARVKPPEGYDV [F1Y]"
experimental_value = 1.3

[[record]]
residue_codes = "NLDERLYCESHAKARVKPPEGYDV [F1N]"
experimental_value = 4.21

[[record]]
residue_codes = "FLDERLYCEKHAKARVKPPEGYDV [S10K]"
experimental_value = 2.12

[[record]]
residue_codes = "FLDERLYCESHAKARVKIPEGYDV [P18I]"
experimental_value = 1.01

[[record]]
residue_codes = "FLVERLYCESHAKARVKPPEGYDV [D3V]"
experimental_value = 2.5

[[record]]
residue_codes = "FLDERLYCESHMKARVKPPEGYDV [A12M]"
experimental_value = 1.53

[[record]]
residue_codes = "FLDERLYCESHAKHRVKPPEGYDV [A14H]"
experimental_value = 2.56

[[record]]
residue_codes = "FLDERGYCESHAKARVKPPEGYDV [L6G]"
experimental_value = 3.42

[[record]]
residue_codes = "FLDERLYCASHAKARVKPPEGYDV [E9A]"
experimental_value = 1.57

[[record]]
residue_codes = "FLDERLYCESHAKAMVKPPEGYDV [R15M]"
experimental_value = 1.18


All values here come from the supplement of paper PMC10567573.
